biological target: ACE (Ovis aries); assay: In vitro colorimetric ACE inhibition assay (HHL substrate, hippuric acid release, 410 nm); assay type: biochemical, sheep; details: sheep kidney ACE extract, HHL substrate, 37 °C, pH 8.2; read-out: IC50 against the ACE
Sequence (A0ACI6QSL6 entry or part of it): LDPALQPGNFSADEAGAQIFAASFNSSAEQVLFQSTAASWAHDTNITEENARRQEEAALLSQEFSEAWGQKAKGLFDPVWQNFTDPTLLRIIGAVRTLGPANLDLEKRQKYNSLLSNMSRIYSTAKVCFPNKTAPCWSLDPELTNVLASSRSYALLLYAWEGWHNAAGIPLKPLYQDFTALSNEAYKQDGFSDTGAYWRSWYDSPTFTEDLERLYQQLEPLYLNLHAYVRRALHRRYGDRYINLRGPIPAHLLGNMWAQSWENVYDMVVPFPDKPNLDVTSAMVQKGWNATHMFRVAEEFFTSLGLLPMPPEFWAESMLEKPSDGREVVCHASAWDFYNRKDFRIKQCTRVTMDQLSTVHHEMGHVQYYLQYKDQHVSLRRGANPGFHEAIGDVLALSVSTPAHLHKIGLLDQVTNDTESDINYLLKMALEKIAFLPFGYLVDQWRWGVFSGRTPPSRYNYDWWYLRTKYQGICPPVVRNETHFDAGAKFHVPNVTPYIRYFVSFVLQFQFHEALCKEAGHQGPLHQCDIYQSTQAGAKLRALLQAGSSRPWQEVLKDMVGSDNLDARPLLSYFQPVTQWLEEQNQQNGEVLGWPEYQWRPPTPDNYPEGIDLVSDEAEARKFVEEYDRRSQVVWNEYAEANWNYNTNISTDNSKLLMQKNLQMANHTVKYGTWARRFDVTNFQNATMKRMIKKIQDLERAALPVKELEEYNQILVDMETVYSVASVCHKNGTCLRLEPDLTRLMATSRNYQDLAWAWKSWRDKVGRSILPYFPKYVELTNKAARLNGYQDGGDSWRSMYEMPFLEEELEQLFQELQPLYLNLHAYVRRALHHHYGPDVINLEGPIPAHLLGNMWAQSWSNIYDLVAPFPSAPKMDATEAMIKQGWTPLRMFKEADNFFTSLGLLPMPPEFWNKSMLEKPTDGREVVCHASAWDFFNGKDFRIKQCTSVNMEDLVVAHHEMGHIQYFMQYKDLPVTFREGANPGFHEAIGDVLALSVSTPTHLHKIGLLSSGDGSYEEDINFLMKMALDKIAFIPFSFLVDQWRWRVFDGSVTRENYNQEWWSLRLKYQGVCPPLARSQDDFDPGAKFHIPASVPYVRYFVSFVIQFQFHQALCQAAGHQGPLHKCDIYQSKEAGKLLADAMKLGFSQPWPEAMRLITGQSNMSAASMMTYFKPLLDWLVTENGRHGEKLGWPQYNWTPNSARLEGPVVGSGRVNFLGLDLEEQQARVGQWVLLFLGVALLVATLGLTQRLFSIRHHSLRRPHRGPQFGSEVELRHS
VALUE TYPE: IC50 (µM)
Return type: number; implicit unit µM.

Example compounds with recorded IC50:
COMPOUND | TARGET OR TEST SYSTEM | VALUE REPORTED
CCCCc1nc(Cl)c(CO)n1CC(O)c1ccc(Cl)cc1 (centres unmarked) [4e] | ACE (Ovis aries) | 4.89
CCCCc1nc(Cl)c(CO)n1CC(O)c1ccc(C)cc1 (centres unmarked) [4c] | ACE (Ovis aries) | 1.56
CCCCc1nc(Cl)c(CO)n1CC(O)c1ccc(OC)cc1 (centres unmarked) [4a] | ACE (Ovis aries) | 2.47
CCCCc1nc(Cl)c(CO)n1CC(O)c1ccc([N+](=O)[O-])cc1 (centres unmarked) [4b] | ACE (Ovis aries) | 1.31

Please find the next compound below.
Query (compound): CCCCc1nc(Cl)c(CO)n1CC(O)c1ccc(F)cc1 (centres unmarked) [4f] ; field requested: IC50
7.57
